# Assay protocol: Primary qHTS for delayed death inhibitors of the malarial parasite plastid, 96 hour incubation
# Cond: P. falciparum luciferase reporter growth; series mostly up to 28.7 µM
Hit rate of the full screen: of about 320,000 compounds, about 22,000 (6.9%) were called active. About 27% were inconclusive and are not listed. Calls come from the whole dose curve; as a rule, active = well fitted inhibition curve with a large enough effect; inconclusive = small, poorly fitted or top-dose-only effect, or another doubt; inactive = no such curve, though single readings can be large or run the other way. The sample holds actives, similar compounds and a random draw of the others, so the mix is not that of the screen.
// one of y for active, n for inactive, no free text

Q: Fill in: this test's call for `COCCNC(=O)CCCn1c(=O)c2ccccc2n(Cc2cccc([N+](=O)[O-])c2)c1=O` is ___
Result: n

Q: Fill in: this test's call for `COc1cc(/C=C/CO)cc(OC)c1O[C@@H]1O[C@H](CO)[C@@H](O)[C@H](O)[C@H]1O` is ___
Result: n

Q: Fill in: this test's call for COc1ccc(C(=O)NC(=S)N2CCNC(=O)C2CC(=O)OC(C)C)cc1 (stereo not given) is ___
Result: n
